target: 5-hydroxytryptamine receptor 1E (Homo sapiens) (UniProt P28566); conditions: Compound concentration 10 µM
Sequence (P28566 whole entry): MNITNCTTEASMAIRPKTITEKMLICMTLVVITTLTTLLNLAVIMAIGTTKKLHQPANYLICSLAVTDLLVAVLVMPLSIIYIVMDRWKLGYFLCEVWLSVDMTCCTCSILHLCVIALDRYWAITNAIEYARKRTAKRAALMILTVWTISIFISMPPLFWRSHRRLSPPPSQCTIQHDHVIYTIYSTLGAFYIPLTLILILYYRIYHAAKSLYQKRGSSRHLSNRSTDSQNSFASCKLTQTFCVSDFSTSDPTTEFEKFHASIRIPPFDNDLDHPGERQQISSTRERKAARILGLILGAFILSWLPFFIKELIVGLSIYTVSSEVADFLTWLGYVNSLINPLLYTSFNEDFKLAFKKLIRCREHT
Description: PDSP Primary Binding target: HTR1E - Compounds are tested at 10 uM concentration, plate are incubated at room temperature in the dark for 90 minutes. Reaction are stopped by vacuum filtration onto 0.3% polyethyleneimine soaked filter mats using Filtermate harvester. Scintilation cocktail is then melted onto microwave-dried filters on a hot plate and the radio activity is counted in Microbia counter.
Outcome label depends on inhibition relative to 10%: at/above gives Y, below gives N.

CN(C)C(=O)N[C@H]1CC[C@H](CCN2CCN(c3cccc(Cl)c3Cl)CC2)CC1	Y
CC1=C2C[C@H]3[C@@H](CC=C4C[C@@H](O)CC[C@@]43C)[C@@H]2CC[C@]12O[C@@H]1C[C@H](C)CN[C@H]1[C@H]2C	N

Qu. Please tell me: is the molecule CC[C@@H]1CN2C(=O)N(C)c3nc(-c4ccccc4)[nH]c3C2=N1 at or over 10% in terms of inhibition?
Ans. Y

Qu. For this molecule, is measured inhibition 10% or higher? CCC[C@H](Oc1cc(C)c(-n2cc(C(F)(F)F)cn2)c(C)c1)c1ccc(C(=O)NCCC(=O)O)cc1
Ans. Y

----------
target: Histamine H3 receptor (Homo sapiens); settings: Compound concentration 10 µM
Description: PDSP Primary Binding target: HRH3 - Compounds are tested at 10 uM concentration, plate are incubated at room temperature in the dark for 90 minutes. Reaction are stopped by vacuum filtration onto 0.3% polyethyleneimine soaked filter mats using Filtermate harvester. Scintilation cocktail is then melted onto microwave-dried filters on a hot plate and the radio activity is counted in Microbia counter.
inhibition values by entry
Provide the reading as a plain figure in %.

Here's what some known entries look like.
CCCCc1nc(Cl)c(CO)n1Cc1ccc(-c2ccccc2-c2nnn[nH]2)cc1	31.4
CN1CC(=O)N=C1NC(=O)Nc1cccc(Cl)c1	-4.69
COc1ccc(NS(=O)(=O)c2sc3ccc(Cl)cc3c2C)cc1N1CCNCC1	16.6

Read the next record carefully.
Qu. For the compound O=C(O)COc1cccc(CN(Cc2ccc(-n3cccn3)cc2)S(=O)(=O)c2cccnc2)c1 , what inhibition is on record?
Ans. 6.23

----------
target: Sigma non-opioid intracellular receptor 1 (Homo sapiens) (UniProt Q99720); conditions: Compound concentration 10 µM
Sequence (Q99720 whole entry): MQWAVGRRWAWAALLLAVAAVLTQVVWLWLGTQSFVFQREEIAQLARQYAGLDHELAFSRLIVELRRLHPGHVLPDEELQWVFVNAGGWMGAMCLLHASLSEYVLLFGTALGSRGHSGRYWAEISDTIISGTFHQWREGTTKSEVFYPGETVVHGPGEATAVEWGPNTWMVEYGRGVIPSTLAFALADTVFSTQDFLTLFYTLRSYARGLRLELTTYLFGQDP
Description: PDSP Primary Binding target: SIGMAR1 - Compounds are tested at 10 uM concentration, plate are incubated at room temperature in the dark for 90 minutes. Reaction are stopped by vacuum filtration onto 0.3% polyethyleneimine soaked filter mats using Filtermate harvester. Scintilation cocktail is then melted onto microwave-dried filters on a hot plate and the radio activity is counted in Microbia counter.
Known inhibition of a selection of compounds
Give the quantity in %, number only.

Cc1cccc(NC(=O)N[C@@H]2N=C(c3ccccc3)c3ccccc3N(C)C2=O)c1	20.8

Qu. Please look up its inhibition: Cc1ccccc1N1CCN(S(=O)(=O)C[C@]23CC[C@H](C[C@@H]2NC(=O)[C@@H](N)CCS(C)(=O)=O)C3(C)C)CC1
Ans. 89.9

Qu. Consider the compound CC1=C2C[C@H]3[C@@H](CC=C4C[C@@H](O)CC[C@@]43C)[C@@H]2CC[C@]12O[C@@H]1C[C@H](C)CN[C@H]1[C@H]2C and give its measured inhibition.
Ans. 10.2

Qu. Tell me the measured inhibition of N#Cc1c(N)nc(SCC(N)=O)c(C#N)c1-c1ccc(OCC2CC2)cc1 , please.
Ans. 62

Qu. Consider the compound COc1ccc(CNC(=O)c2cc(-c3cncc(Cl)c3)cnc2-c2ccccn2)nc1OC and give its measured inhibition.
Ans. -2.32

Qu. Reported inhibition for CN(C)C(=O)C(CCN1CCC(O)(c2ccc(Cl)cc2)CC1)(c1ccccc1)c1ccccc1 : what is it?
Ans. 87.2

Qu. Name the recorded inhibition for COc1ccccc1N1CCN(CCCCNC(=O)c2ccc3ccccc3c2)CC1 .
Ans. 90.4

Qu. Query: inhibition; subject: Cc1cc(NC(=O)Nc2ccc(N(C)C)cc2)c2cc(F)cc(F)c2n1
Ans. 96

Qu. Item Cc1c(C(=O)NC2CCCCC2)sc2nc3ccc(N)cc3n12 has what recorded inhibition?
Ans. 62.8

Qu. Please give the measured inhibition for this compound: CSc1ccc(C(=O)N[C@@H]2CCCC[C@@H]2NC(=O)CNC(=O)c2cc(C(F)(F)F)ccc2NC(=O)NC(C)C)cc1
Ans. 22.2

Qu. So what does the record say about inhibition for COc1ccc(/C=C/CCCCOc2ccc(C(=O)c3cccc(C(=O)O)c3)cc2CCC(=O)O)cc1 ?
Ans. 11.6

Qu. // returns reported inhibition for input O=C(Nc1ccc(Cl)cc1)Nc1cccc(-c2cccc(N3CCCC3)n2)c1
Ans. 47.3

Qu. Bench note: what inhibition did CNc1nc(NCc2ccc(NS(C)(=O)=O)cc2Cl)cc(-c2ccccn2)n1 show?
Ans. 87.2

Qu. Which inhibition reading was recorded for the compound CCCSc1nc(N[C@@H]2C[C@H]2c2ccc(F)c(F)c2)c2nnn([C@@H]3C[C@H](OCCO)[C@@H](O)[C@H]3O)c2n1 ?
Ans. 35.4
